// provenance: ChEMBL document CHEMBL5331046

System: HepG2
Assay Summary: Cytotoxicity against human HepG2 cells assessed as reduction in cell viability upto 100 uM by WST-1 assay
Format: toxicity, cell-based
Setup Conditions: hepg2, 100 µM
Endpoint Name: Activity

>  <Smi>
CCN(CC)C(=S)SCc1ccc(C)cc1

>  <Endpoint Name>
Activity

>  <Result>
Non-Toxic

$$$$
>  <Smi>
CCN(CC)C(=S)SCCC1SCCCS1

>  <Endpoint Name>
Activity

>  <Result>
Non-Toxic

$$$$
>  <Smi>
CCN(CC)C(=S)SCC1CCCCC1

>  <Endpoint Name>
Activity

>  <Result>
Non-Toxic

$$$$
>  <Smi>
CCN(CC)C(=S)SCCC1SCCS1

>  <Endpoint Name>
Activity

>  <Result>
Non-Toxic

$$$$

====

Test system: Schistosoma mansoni
Assay Summary: Antischistosomal activity against Schistosoma mansoni couples assessed as eggs deformation at 100 uM measured upto 72 hrs by bright field microscopy
Assay type: functional
The source made the active and inactive calls. The calls are words filed in the database; no cut-off is given here.

>  <Smi>
CN(C)C(=S)SCc1ccccc1

>  <Activity>
Active

$$$$
>  <Smi>
CCCN(CCC)C(=S)SCc1ccccc1

>  <Activity>
Active

$$$$
>  <Smi>
CCN(CC)C(=O)OCc1ccccc1

>  <Activity>
~100%

$$$$
>  <Smi>
CCN(CC)C(=S)SCCN1CCOCC1

>  <Activity>
Active

$$$$

====

Test system: LS174T
Assay Summary: Cytotoxicity against human LS174T cells assessed as reduction in cell viability at 100 uM by WST-1 assay
Type: toxicity, cell-based
Endpoint Name: Activity

>  <Compound>
C[C@H](N)C(=O)N1CCN(C(=S)SCc2ccc([N+](=O)[O-])cc2)CC1.Cl

>  <Endpoint Name>
Activity

>  <Result>
Toxic

$$$$
>  <Compound>
CCN(CC)C(=S)SCc1ccc2ccccc2c1

>  <Endpoint Name>
Activity

>  <Result>
Non-Toxic

$$$$
>  <Compound>
CCN(CC)C(=S)SC [METHYLDIETHYL CARBAMODITHIOATE]

>  <Endpoint Name>
Activity

>  <Result>
Non-Toxic

$$$$
>  <Compound>
S=C(SCc1ccccc1)n1ccc2ccccc21

>  <Endpoint Name>
Activity

>  <Result>
Non-Toxic

$$$$
>  <Compound>
Cl.O=C([C@@H]1CCCN1)N1CCN(C(=S)SCc2ccc([N+](=O)[O-])cc2)CC1

>  <Endpoint Name>
Activity

>  <Result>
Toxic

$$$$
>  <Compound>
CN(C)CCN1CCN(C(=S)SCc2ccc([N+](=O)[O-])cc2)CC1

>  <Endpoint Name>
Activity

>  <Result>
Toxic

$$$$
>  <Compound>
S=C(SCc1ccccc1)N1CCSCC1

>  <Endpoint Name>
Activity

>  <Result>
Non-Toxic

$$$$
>  <Compound>
CS(=O)(=O)N1CCN(C(=S)SCc2ccc([N+](=O)[O-])cc2)CC1

>  <Endpoint Name>
Activity

>  <Result>
Non-Toxic

$$$$
>  <Compound>
O=[N+]([O-])c1ccc(CSC(=S)N2CCN(S(=O)(=O)c3ccccc3)CC2)cc1

>  <Endpoint Name>
Activity

>  <Result>
Toxic

$$$$

====

Tested on: Schistosoma mansoni
Assay Summary: Antischistosomal activity against Schistosoma mansoni couples assessed as inhibition of eggs production at 15 uM measured upto 72 hrs by bright field microscopy
Format: functional
Parameters: scale not given: the % may be the effect or the level left
Listing: Activity of selected compounds

>  <Smi>
CS(=O)(=O)N1CCN(C(=S)SCc2ccc([N+](=O)[O-])cc2)CC1

>  <Activity [%]>
40

$$$$
>  <Smi>
CCCCS(=O)(=O)N1CCN(C(=S)SCc2ccc([N+](=O)[O-])cc2)CC1

>  <Activity [%]>
40

$$$$
>  <Smi>
CCS(=O)(=O)N1CCN(C(=S)SCc2ccc([N+](=O)[O-])cc2)CC1

>  <Activity [%]>
40

$$$$
>  <Smi>
O=[N+]([O-])c1ccc(CSC(=S)N2CCN(S(=O)(=O)c3ccccc3)CC2)cc1

>  <Activity [%]>
40

$$$$
>  <Smi>
O=[N+]([O-])c1ccc(CSC(=S)N2CCN(S(=O)(=O)C3CC3)CC2)cc1

>  <Activity [%]>
40

$$$$

====

Tested on: LS174T
Assay Summary: Cytotoxicity against human LS174T cells assessed as reduction in cell vaibility upto 100 uM by WST-1 assay
Format: toxicity, cell-based
Endpoint Name: Activity

>  <Smi>
CCN(CC)C(=S)SCCC1SCCCS1

>  <Result>
Non-Toxic

$$$$
>  <Smi>
CCN(CC)C(=S)SCCC1SCCS1

>  <Result>
Non-Toxic

$$$$
>  <Smi>
CCN(CC)C(=S)SCc1ccc(C)cc1

>  <Result>
Non-Toxic

$$$$
>  <Smi>
CCN(CC)C(=S)SCC1CCCCC1

>  <Result>
Non-Toxic

$$$$

====

System: HepG2
Assay Summary: Cytotoxicity against human HepG2 cells assessed as reduction in cell vaibility at 100 uM by WST-1 assay
Format: toxicity, cell-based
Setup Conditions: hepg2, 100 µM

>  <Smi>
CCN(CC)C(=S)SCc1ccc2ccccc2c1

>  <Activity>
Non-Toxic

$$$$
>  <Smi>
S=C(SCc1ccccc1)n1ccc2ccccc21

>  <Activity>
Non-Toxic

$$$$
>  <Smi>
S=C(SCc1ccccc1)N1CCSCC1

>  <Activity>
Non-Toxic

$$$$
>  <Smi>
C[C@H](N)C(=O)N1CCN(C(=S)SCc2ccc([N+](=O)[O-])cc2)CC1.Cl

>  <Activity>
Toxic

$$$$
>  <Smi>
Cl.O=C([C@@H]1CCCN1)N1CCN(C(=S)SCc2ccc([N+](=O)[O-])cc2)CC1

>  <Activity>
Toxic

$$$$
>  <Smi>
CS(=O)(=O)N1CCN(C(=S)SCc2ccc([N+](=O)[O-])cc2)CC1

>  <Activity>
Non-Toxic

$$$$

====

Test system: HepG2
Assay Summary: Cytotoxicity against human HepG2 cells assessed as reduction in cell vaibility at 100 uM by WST-1 assay
Format: toxicity, cell-based
Setup Conditions: hepg2, 100 µM

>  <Smi>
CN(C)CCN1CCN(C(=S)SCc2ccc([N+](=O)[O-])cc2)CC1

>  <Subject Of Test>
HepG2

>  <Activity>
Toxic

$$$$
>  <Smi>
O=[N+]([O-])c1ccc(CSC(=S)N2CCN(S(=O)(=O)c3ccccc3)CC2)cc1

>  <Subject Of Test>
HepG2

>  <Activity>
Toxic

$$$$
